# measured-on: S. aureus DnaE (DNA polymerase III α-subunit homolog from Staphylococcus aureus) (Staphylococcus aureus, UniProt Q5HF71)
# Construct: SaDnaE (S. aureus DnaE residues 1-1065); 6xHis (N); made in house; host or cells: E. coli BL21-AI
# Sequence (Q5HF71 1-1065): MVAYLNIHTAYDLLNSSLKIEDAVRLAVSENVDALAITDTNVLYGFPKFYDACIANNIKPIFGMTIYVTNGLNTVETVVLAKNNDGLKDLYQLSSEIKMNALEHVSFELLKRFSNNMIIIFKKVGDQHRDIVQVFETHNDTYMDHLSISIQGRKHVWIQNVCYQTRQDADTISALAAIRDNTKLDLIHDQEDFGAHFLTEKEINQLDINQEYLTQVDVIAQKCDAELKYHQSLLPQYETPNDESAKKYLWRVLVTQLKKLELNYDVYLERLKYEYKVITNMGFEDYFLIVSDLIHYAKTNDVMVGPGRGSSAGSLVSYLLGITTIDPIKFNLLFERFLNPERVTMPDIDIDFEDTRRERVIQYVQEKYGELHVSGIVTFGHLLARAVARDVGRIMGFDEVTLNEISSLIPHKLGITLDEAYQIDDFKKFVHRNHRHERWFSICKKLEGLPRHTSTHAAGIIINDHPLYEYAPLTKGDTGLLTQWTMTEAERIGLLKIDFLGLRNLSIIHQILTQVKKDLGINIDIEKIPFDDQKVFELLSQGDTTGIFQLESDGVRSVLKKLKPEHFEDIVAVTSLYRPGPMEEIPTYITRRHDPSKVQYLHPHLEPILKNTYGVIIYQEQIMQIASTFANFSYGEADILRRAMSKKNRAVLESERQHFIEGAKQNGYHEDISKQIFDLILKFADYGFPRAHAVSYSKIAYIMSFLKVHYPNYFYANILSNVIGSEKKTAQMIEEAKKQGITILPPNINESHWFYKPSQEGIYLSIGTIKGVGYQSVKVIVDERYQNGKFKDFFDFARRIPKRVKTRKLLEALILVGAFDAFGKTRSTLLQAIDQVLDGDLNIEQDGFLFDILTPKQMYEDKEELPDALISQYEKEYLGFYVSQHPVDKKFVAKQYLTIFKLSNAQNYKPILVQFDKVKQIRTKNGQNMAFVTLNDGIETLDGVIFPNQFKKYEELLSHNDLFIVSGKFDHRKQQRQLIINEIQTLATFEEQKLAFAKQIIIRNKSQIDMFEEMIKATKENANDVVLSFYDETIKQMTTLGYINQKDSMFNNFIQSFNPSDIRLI
# test-summary: biochemical
# Format: biochemical
# condition-info: read-out: S. aureus DnaE IC50 (converted)
value-type: IC50 (µM)
Answers are plain numbers, in µM.

- compound: "CO[C@H]1C[C@H]2C=C[C@H]3[C@H]4O[C@]2(/C(C)=C/[C@@H](C)[C@@H]([C@@H](C)O)OC1=O)[C@@H]3[C@H](O)C(C)[C@@H]4NCc1ccncc1.O=C(O)C(F)(F)F (some centres unmarked)"
  unit-abbreviation: "µM"
  IC50: 112
- compound: "CO[C@H]1C[C@H]2C=C[C@H]3[C@H]4O[C@]2(/C(C)=C/[C@@H](C)[C@@H]([C@@H](C)OC(=O)NCCN(C)C)OC1=O)[C@@H]3[C@H](O)[C@@H](C)[C@H]4OC(=O)c1ccc[nH]1"
  unit-abbreviation: "µM"
  IC50: 0.0143
- compound: "CO[C@H]1C[C@H]2C=C[C@H]3[C@H]4O[C@]2(/C(C)=C/[C@@H](C)[C@@H]([C@@H](C)O)OC1=O)[C@@H]3C(=O)C(C)[C@H]4C[N+](=O)[O-] (some centres unmarked)"
  unit-abbreviation: "µM"
  IC50: 17.3

Then there is this compound:
If you can, please state the reported IC50 value of CO[C@H]1C[C@H]2C=C[C@H]3[C@H]4O[C@]2(/C(C)=C/[C@@H](C)[C@@H]([C@@H](C)O)OC1=O)[C@@H]3[C@H](O)C(C)[C@@H]4NCc1cccs1.O=C(O)C(F)(F)F (some centres unmarked) .
47.5

---

Please go through the items and note down their IC50.
# measured-on: E. coli DnaE (DNA polymerase III α-subunit from Escherichia coli) (Escherichia coli, UniProt P10443)
# Construct: EcDnaE (E. coli DnaE residues 1-1160); 6xHis (N); made in house; host or cells: E. coli BL21(DE3)
# Sequence (P10443 whole entry, the tested form may be a part): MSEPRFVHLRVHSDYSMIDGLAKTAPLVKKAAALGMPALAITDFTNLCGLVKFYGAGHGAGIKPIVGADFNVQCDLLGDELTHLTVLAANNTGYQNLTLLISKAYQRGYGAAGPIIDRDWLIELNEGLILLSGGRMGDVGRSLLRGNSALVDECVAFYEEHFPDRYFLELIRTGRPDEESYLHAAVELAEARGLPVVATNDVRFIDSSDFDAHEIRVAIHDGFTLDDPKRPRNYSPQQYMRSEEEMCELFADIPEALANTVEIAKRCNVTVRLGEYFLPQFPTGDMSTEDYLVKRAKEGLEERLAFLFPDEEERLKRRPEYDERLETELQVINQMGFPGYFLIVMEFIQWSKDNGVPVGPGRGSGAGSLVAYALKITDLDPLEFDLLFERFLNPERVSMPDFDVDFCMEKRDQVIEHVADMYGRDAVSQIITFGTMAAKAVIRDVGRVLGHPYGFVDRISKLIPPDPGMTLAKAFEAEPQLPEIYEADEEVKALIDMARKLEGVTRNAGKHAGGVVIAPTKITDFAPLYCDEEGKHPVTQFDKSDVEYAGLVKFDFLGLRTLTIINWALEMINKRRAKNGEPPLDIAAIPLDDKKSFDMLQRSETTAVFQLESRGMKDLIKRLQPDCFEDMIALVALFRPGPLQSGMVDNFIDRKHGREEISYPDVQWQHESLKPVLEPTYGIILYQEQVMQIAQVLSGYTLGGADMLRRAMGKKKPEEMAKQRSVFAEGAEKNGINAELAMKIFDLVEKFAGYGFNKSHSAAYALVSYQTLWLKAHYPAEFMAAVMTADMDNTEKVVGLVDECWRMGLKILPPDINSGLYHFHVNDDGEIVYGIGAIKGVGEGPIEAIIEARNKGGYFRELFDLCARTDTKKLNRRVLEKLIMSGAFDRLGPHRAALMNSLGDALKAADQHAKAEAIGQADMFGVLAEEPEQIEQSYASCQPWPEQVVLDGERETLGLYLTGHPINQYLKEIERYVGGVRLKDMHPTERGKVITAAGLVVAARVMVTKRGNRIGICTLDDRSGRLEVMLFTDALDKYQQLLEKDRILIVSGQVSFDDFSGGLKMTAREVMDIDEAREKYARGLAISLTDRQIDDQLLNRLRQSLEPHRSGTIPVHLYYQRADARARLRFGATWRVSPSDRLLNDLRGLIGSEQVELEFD
# test-summary: In vitro DnaE single enzyme assay (E. coli)
# Assay type: biochemical
# condition-info: E. coli DnaE IC50

Below, 5 molecules whose answers are already recorded.
- molecule: "CO[C@H]1C[C@H]2C=CC3C4[C@H](O)[C@@H](C)[C@@H](OC(=O)c5ccc[nH]5)[C@@H]3O[C@]42/C(C)=C/[C@@H](C)[C@@H]([C@@H](C)OC(=O)C(=O)OCc2cccnc2)OC1=O.O=C(O)C(F)(F)F"
  IC50: "3.41 µM"
- molecule: "CO[C@H]1CC2C=C[C@H]3[C@H]4O[C@]2(/C(C)=C/[C@@H](C)[C@@H]([C@@H](C)OC(=O)OCCCO)OC1=O)[C@@H]3[C@H](O)[C@@H](C)[C@H]4OC(=O)c1ccc[nH]1 (stereo partly shown)"
  IC50: "130 µM"
- molecule: "CO[C@H]1C[C@H]2C=C[C@H]3[C@H]4O[C@]2(/C(C)=C/[C@@H](C)[C@@H]([C@@H](C)O)OC1=O)[C@@H]3[C@H](O)C(C)[C@@H]4NCCN1CCCC1.O=C(O)C(F)(F)F (stereo partly shown)"
  IC50: "> 158 µM"
- molecule: "CO[C@H]1C[C@H]2C=C[C@H]3[C@H]4O[C@]2(/C(C)=C/[C@@H](C)[C@@H]([C@@H](C)O)OC1=O)[C@@H]3[C@H](O)C(C)[C@@H]4CO (stereo partly shown)"
  IC50: "> 229 µM"
- molecule: "CO[C@H]1C[C@H]2C=C[C@H]3[C@H]4O[C@]2(/C(C)=C/[C@@H](C)[C@@H]([C@@H](C)O)OC1=O)[C@@H]3C(=O)C(C)[C@H]4C#N (stereo partly shown)"
  IC50: "> 233 µM"

Lab note: each molecule below needs its IC50 filled in.
1. COC1CC2C=CC3C4OC2(C(C)=CC(C)C(C(C)OC(=O)NCCCN2CCN(C)CC2)OC1=O)C3C(O)C(C)C4OC(=O)c1ccc[nH]1 (stereo not shown)
2. CO[C@H]1C[C@H]2C=CC3C4[C@H](O)[C@@H](C)[C@@H](OC(=O)c5cc(-c6cccnc6)c[nH]5)[C@@H]3O[C@]42/C(C)=C/[C@@H](C)[C@@H]([C@@H](C)O)OC1=O
3. CO[C@H]1C[C@H]2C=C[C@H]3[C@H]4O[C@]2(/C(C)=C/[C@@H](C)[C@@H]([C@@H](C)O)OC1=O)[C@@H]3C(=O)C(C)[C@H]4C[N+](=O)[O-] (stereo partly shown)
4. CO[C@H]1C[C@H]2C=C[C@H]3[C@H]4O[C@]2(/C(C)=C/[C@@H](C)[C@@H]([C@@H](C)O)OC1=O)[C@@H]3[C@H](O)[C@@H](C)[C@@H]4N1CCCC1
5. CO[C@H]1C[C@H]2C=C[C@H]3[C@H]4O[C@]2(/C(C)=C/[C@@H](C)[C@@H]([C@@H](C)O)OC1=O)[C@@H]3[C@H](O)C(C)[C@@H]4NCc1cccs1.O=C(O)C(F)(F)F (stereo partly shown)

1: > 143 µM; 2: > 169 µM; 3: > 216 µM; 4: > 105 µM; 5: > 158 µM

---

# measured-on: E. coli DnaE (DNA polymerase III α-subunit from Escherichia coli) (Escherichia coli)
# Construct: EcDnaE (E. coli DnaE residues 1-1160); 6xHis (N); made in house; host or cells: E. coli BL21(DE3)
# test-summary: In vitro DnaE single enzyme assay (E. coli)
# Type: biochemical
For each entry below, report its E. coli DnaE IC50 value.

# example entries with known answers
- structure-string: "CO[C@H]1C[C@H]2C=CC3C4[C@H](O)[C@@H](C)[C@@H](OC(=O)c5ccc[nH]5)[C@@H]3O[C@]42/C(C)=C/[C@@H](C)[C@@H]([C@@H](C)OC(=O)C(=O)NC(C)(C)C)OC1=O"
  measured-on: "E. coli DnaE (DNA polymerase III α-subunit from Escherichia coli) (Escherichia coli)"
  experimental-value: "15 µg/mL"
- structure-string: "CO[C@H]1C[C@H]2C=CC3C4[C@H](O)[C@@H](C)[C@@H](OC(=O)c5ccc[nH]5)[C@@H]3O[C@]42/C(C)=C/[C@@H](C)[C@@H]([C@@H](C)OC(=O)C(=O)NC2CC2)OC1=O"
  measured-on: "E. coli DnaE (DNA polymerase III α-subunit from Escherichia coli) (Escherichia coli)"
  experimental-value: "11 µg/mL"

Record E. coli DnaE IC50 for all entries; do not skip any.
1. CO[C@H]1C[C@H]2C=CC3C4[C@H](O)[C@@H](C)[C@@H](OC(=O)c5ccc[nH]5)[C@@H]3O[C@]42/C(C)=C/[C@@H](C)[C@@H]([C@@H](C)OC(=O)C(=O)NCc2ccccc2CN(C)C)OC1=O
2. COCCNC(=O)C(=O)O[C@H](C)[C@H]1OC(=O)[C@@H](OC)C[C@H]2C=CC3C4[C@H](O)[C@@H](C)[C@@H](OC(=O)c5ccc[nH]5)[C@@H]3O[C@]42/C(C)=C/[C@H]1C

1. 1 µg/mL
2. 11 µg/mL

Items follow; give E. coli DnaE IC50 for each.
1. CO[C@H]1C[C@H]2C=CC3C4[C@H](O)[C@@H](C)[C@@H](OC(=O)c5ccc[nH]5)[C@@H]3O[C@]42/C(C)=C/[C@@H](C)[C@@H]([C@@H](C)OC(=O)C(=O)NCc2ccncc2)OC1=O
2. CO[C@H]1C[C@H]2C=CC3C4[C@H](O)[C@@H](C)[C@@H](OC(=O)c5ccc[nH]5)[C@@H]3O[C@]42/C(C)=C/[C@@H](C)[C@@H]([C@@H](C)OC(=O)C(=O)N2CCOCC2)OC1=O

1: 9 µg/mL; 2: >100 µg/mL

This collection of values is drawn from patent US9944654B2.
